# Test system: Huh-7
# measurement_protocol: Cytotoxicity against human HuH7 cells after 72 to 96 hrs by coulter counter method
# Format: functional, cell-based
What IC50 was measured for each of the following?
Give bare numbers, in µM.

CCc1cc(C(=O)OC)c(N)s1	84

# next compound below
Any idea what its IC50 is? The compound is CCCc1cc(C(=O)OC)c(N)s1
2.5

----------
# Test system: CCRF-CEM
# measurement_protocol: Cytotoxicity against human CEM cells after 72 to 96 hrs by coulter counter method
measured_quantity: pIC50
Answers are plain numbers, as −log10 of the molar value.

Any idea what its pIC50 is? The compound is CCCc1cc(C(=O)OC)c(N)s1
5.16

----------
# System: MOLT-4
# measurement_protocol: Cytotoxicity against human MOLT4 cells after 72 to 96 hrs by coulter counter method
# Assay type: functional, cell-based
measured_quantity: pIC50
Give bare numbers, as −log10 of the molar value.

CCCc1cc(C(=O)OC)c(N)s1	5.68

API: value(readout=pIC50, system=MOLT-4) for record CCc1cc(C(=O)OC)c(N)s1
4.54

----------
# Tested on: PC-3
# measurement_protocol: Cytotoxicity against human PC3 cells after 72 to 96 hrs by coulter counter method
measured_quantity: IC50 (µM)
Numbers only, in µM.

For each listed entry, give its IC50.
1. CCCc1cc(C(=O)OC)c(N)s1
2. CCc1cc(C(=O)OC)c(N)s1

[3.4, 27]
